# PROTOCOL TEXT: Oral bioavailability in rat (dose 2.5 mg/kg)
# Format: ADME, organism-based
# CONDITION: in vivo
Measured bioavailability of individual entries
A bare number is not enough; add the unit after it.

| SMILES ENTRY | bioavailability |
| --- | --- |
| O=C(O)CNCCOc1ccc(Cl)c2c1C1(CCCCC1)NC(=O)N2 | 6.5% |

Ask | Look at this compound and give its reported bioavailability. `O=C(O)COc1ccc(Cl)c2c1C1(CCCCC1)NC(=O)N2`
Reply | 21%

Ask | So what does the record say about bioavailability for `O=C1Nc2c(Cl)ccc(OCCO)c2C2(CCCCC2)N1` ?
Reply | 27%

Ask | I'd like to know its bioavailability. The compound in question is `O=C1Nc2c(Cl)ccc(OCCN3CCOCC3)c2C2(CCCCC2)N1`
Reply | 3.7%
